Below are compounds with their Ki as measured on rA2A adenosine receptor (Rattus norvegicus, UniProt P30543).
Sequence (P30543 whole entry): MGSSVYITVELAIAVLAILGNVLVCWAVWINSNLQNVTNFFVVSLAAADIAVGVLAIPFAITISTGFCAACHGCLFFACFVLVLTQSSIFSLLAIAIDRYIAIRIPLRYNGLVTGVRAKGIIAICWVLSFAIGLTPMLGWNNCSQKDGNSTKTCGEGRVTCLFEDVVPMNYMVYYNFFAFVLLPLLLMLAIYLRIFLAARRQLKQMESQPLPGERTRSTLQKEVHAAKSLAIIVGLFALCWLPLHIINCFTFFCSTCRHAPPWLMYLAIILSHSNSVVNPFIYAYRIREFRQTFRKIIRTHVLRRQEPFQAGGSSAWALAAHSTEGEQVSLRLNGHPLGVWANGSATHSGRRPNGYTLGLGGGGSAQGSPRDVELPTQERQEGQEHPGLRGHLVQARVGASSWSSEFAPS
# output: bare number, implied unit nM

> print(dat)
                                        mol  endpoint.value
1  CCCn1c(=O)[nH]c2nc(-c3ccc(S(=O)(=O)N4CCN(Cc5cccc(C(F)(F)F)c5)CC4)cc3)[nH]c2c1=O            1700

Input: Provide one value: measured Ki of `CCn1c(=O)[nH]c2nc(-c3ccc(S(=O)(=O)N4CCN(Cc5ccc(OC)cc5)CC4)cc3)[nH]c2c1=O`
Output: 630

Input: Provide one value: measured Ki of `CCCn1c(=O)[nH]c2nc(-c3ccc(S(=O)(=O)N4CCN(Cc5ccc6c(c5)OCO6)CC4)cc3)[nH]c2c1=O`
Output: 590

Input: Provide one value: measured Ki of `CCCn1c(=O)[nH]c2nc(-c3ccc(S(=O)(=O)N4CCN(Cc5ccc(C(F)(F)F)cc5)CC4)cc3)[nH]c2c1=O`
Output: 1540

Input: Provide one value: measured Ki of `CCCn1c(=O)[nH]c2nc(-c3ccc(S(=O)(=O)N4CCN(Cc5cccc(Cl)c5)CC4)cc3)[nH]c2c1=O`
Output: 799
